Assay: Drug recovery in male Sprague-Dawley rat urine at 45 mg/kg, po measured upto 96 hrs by UHPLC analysis
Format: ADME, organism-based
Conditions: read-out: Drug recovery
READOUT TYPE: dose excreted at 96 h

Ask: # input molecule: N#Cc1ccc(O[C@H]2CC[C@H](NC(=O)c3ccc(N4CCC(CN5CCN(c6cc7c(cc6F)[14C](=O)N(C6CCC(=O)NC6=O)[14C]7=O)CC5)CC4)nn3)CC2)cc1Cl (stereo partly specified) ; wanted: its dose excreted at 96 h
Result: 2.51%

---

Experiment: Drug recovery in female Sprague-Dawley rat feces at 45 mg/kg, po measured upto 48 hrs by UHPLC analysis
Format: ADME, organism-based
Conditions: faeces, read-out: Drug recovery
READOUT TYPE: dose excreted at 48 h (%)
Unit % implied. Number only.

Ask: Looking for the measured dose excreted at 48 h of N#Cc1ccc(O[C@H]2CC[C@H](NC(=O)c3ccc(N4CCC(CN5CCN(c6cc7c(cc6F)[14C](=O)N(C6CCC(=O)NC6=O)[14C]7=O)CC5)CC4)nn3)CC2)cc1Cl (stereo partly specified) , can you help?
Result: 88

---

Assay: Drug recovery in female Sprague-Dawley rat bile duct at 45 mg/kg, po measured upto 72 hrs by UHPLC analysis
Assay type: ADME, organism-based
Settings: read-out: Drug recovery
READOUT TYPE: dose excreted at 72 h (%)
Write down the numeric answer in % and omit the unit.

Ask: Requested field: dose excreted at 72 h. Item: N#Cc1ccc(O[C@H]2CC[C@H](NC(=O)c3ccc(N4CCC(CN5CCN(c6cc7c(cc6F)[14C](=O)N(C6CCC(=O)NC6=O)[14C]7=O)CC5)CC4)nn3)CC2)cc1Cl (stereo partly specified)
Result: 4.49

---

Test: Drug recovery in Sprague-Dawley rat bile duct at 45 mg/kg, po measured over 72 hrs by UHPLC analysis
Format: ADME, organism-based
Conditions: read-out: Drug recovery
READOUT TYPE: dose excreted at 72 h (%)
Respond numerically; units are % and should not be typed.

Ask: Given the compound N#Cc1ccc(O[C@H]2CC[C@H](NC(=O)c3ccc(N4CCC(CN5CCN(c6cc7c(cc6F)C(=O)N(C6CCC(=O)NC6=O)C7=O)CC5)CC4)nn3)CC2)cc1Cl (stereo partly specified) [BAVDEGALUTAMIDE] , what is its reported dose excreted at 72 h?
Result: 4.54

---

Test: Drug recovery in female Sprague-Dawley rat urine at 45 mg/kg, po measured upto 96 hrs by UHPLC analysis
Format: ADME, organism-based
Details: read-out: Drug recovery
READOUT TYPE: dose excreted at 96 h (%)
State the answer as a number, implicitly in %.

Ask: Fill blank: measured dose excreted at 96 h of the compound N#Cc1ccc(O[C@H]2CC[C@H](NC(=O)c3ccc(N4CCC(CN5CCN(c6cc7c(cc6F)[14C](=O)N(C6CCC(=O)NC6=O)[14C]7=O)CC5)CC4)nn3)CC2)cc1Cl (stereo partly specified) is ____.
Result: 4.25

---

Test: Drug recovery in male Sprague-Dawley rat bile duct at 45 mg/kg, po measured upto 72 hrs by UHPLC analysis
Format: ADME, organism-based
Settings: read-out: Drug recovery
READOUT TYPE: dose excreted at 72 h (%)
# value in %; strip the unit string

Ask: Please report the recorded dose excreted at 72 h for N#Cc1ccc(O[C@H]2CC[C@H](NC(=O)c3ccc(N4CCC(CN5CCN(c6cc7c(cc6F)[14C](=O)N(C6CCC(=O)NC6=O)[14C]7=O)CC5)CC4)nn3)CC2)cc1Cl (stereo partly specified) .
Result: 4.55

---

Assay: Drug recovery in Sprague-Dawley rat urine at 45 mg/kg, po measured over 168 hrs by UHPLC analysis
Assay type: ADME, organism-based
Details: read-out: Drug recovery
READOUT TYPE: dose excreted at 168 h (%)
Give the value in % but do not write % after it.

Ask: Which dose excreted at 168 h reading was recorded for the compound N#Cc1ccc(O[C@H]2CC[C@H](NC(=O)c3ccc(N4CCC(CN5CCN(c6cc7c(cc6F)C(=O)N(C6CCC(=O)NC6=O)C7=O)CC5)CC4)nn3)CC2)cc1Cl (stereo partly specified) [BAVDEGALUTAMIDE] ?
Result: 3.38
